The measured values listed here are drawn from patent US7326768B2.

# system: recombinant human GPBP (Homo sapiens)
# Sequence (Q9Y5P4 1-624): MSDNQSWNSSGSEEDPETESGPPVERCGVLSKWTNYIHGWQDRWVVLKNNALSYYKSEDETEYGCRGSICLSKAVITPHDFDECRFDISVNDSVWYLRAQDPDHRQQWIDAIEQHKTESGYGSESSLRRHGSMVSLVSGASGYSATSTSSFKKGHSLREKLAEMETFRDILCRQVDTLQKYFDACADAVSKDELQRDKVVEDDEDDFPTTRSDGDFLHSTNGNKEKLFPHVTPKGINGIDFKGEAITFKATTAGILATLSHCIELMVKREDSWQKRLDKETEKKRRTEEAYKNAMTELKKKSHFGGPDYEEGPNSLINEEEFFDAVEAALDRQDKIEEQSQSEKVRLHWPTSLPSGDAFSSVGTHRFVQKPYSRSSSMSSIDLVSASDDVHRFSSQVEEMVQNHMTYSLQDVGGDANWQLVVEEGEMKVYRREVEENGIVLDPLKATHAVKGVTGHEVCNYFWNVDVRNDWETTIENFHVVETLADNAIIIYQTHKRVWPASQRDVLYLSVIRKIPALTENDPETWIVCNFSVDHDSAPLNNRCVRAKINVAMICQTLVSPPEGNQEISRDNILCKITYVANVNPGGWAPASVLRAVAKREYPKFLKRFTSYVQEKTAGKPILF
# experiment_summary: In vitro phosphorylation: GPBP kinase activity / autophosphorylation
# measurement_setup: modulators at 200 μM, 10 min autophosphorylation reaction
recorded_endpoint: GPBP kinase activity in vitro (autophosphorylation)

molecule	result
COc1ccc(S(=O)(=O)N(CCO)c2ccccc2CN(C)CC=Cc2ccc(Cl)cc2)cc1	efficiently impaired
CN[C@@H]1C[C@H]2O[C@@](C)([C@@H]1OC)n1c3ccccc3c3c4c(c5c6ccccc6n2c5c31)C(=O)NC4 [staurosporine, reference compound]	efficiently impaired
